- Target Or System: BRAF G466V (Homo sapiens, UniProt P15056, G466V)
- Construct: Horizon Discovery (HCT-116 BRAF−/− cells); host or cells: HCT-116 BRAF−/− cells, clone 8, lentiviral transduction
- Sequence (P15056 whole entry G466V): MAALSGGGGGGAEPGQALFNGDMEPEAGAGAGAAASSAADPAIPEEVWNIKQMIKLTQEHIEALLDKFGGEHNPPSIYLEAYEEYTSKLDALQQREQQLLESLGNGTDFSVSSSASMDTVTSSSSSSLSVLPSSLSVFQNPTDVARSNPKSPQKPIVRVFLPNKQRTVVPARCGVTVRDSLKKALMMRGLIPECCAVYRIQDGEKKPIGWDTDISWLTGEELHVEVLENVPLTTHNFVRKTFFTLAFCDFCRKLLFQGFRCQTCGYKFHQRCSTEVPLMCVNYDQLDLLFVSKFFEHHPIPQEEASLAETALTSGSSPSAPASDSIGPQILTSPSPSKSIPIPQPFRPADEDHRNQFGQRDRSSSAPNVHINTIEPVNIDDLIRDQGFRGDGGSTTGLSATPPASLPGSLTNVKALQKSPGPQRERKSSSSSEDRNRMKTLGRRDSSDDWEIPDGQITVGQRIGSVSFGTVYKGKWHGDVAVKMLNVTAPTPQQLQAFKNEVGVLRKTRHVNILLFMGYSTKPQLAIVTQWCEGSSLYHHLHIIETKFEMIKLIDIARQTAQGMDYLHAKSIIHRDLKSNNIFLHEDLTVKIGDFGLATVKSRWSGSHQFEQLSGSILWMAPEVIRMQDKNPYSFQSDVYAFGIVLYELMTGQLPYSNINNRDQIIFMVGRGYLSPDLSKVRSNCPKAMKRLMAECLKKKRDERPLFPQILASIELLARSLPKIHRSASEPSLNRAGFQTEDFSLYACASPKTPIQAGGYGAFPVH
- Experimental Details: BRAF HiBiT degradation assay, C-terminal HiBiT-tagged BRAF G466V overexpressed in HCT-116 BRAF−/− cells (clone 8), Nano-Glo HiBiT Lytic assay
- Format: cell-based
- Setup Conditions: HCT-116; BRAF G466V; percentage protein degraded at maximal compound effect relative to DMSO
Assay Endpoint: Dmax

{"columns": ["Compound", "Target Or System", "Result"],
 "data": [
  ["CCCS(=O)(=O)Nc1cccc(-c2nc(C(C)(C)C)sc2-c2ccnc(Nc3ccc(N4CCN(C(=O)C5CCN(c6ccc(C7CCC(=O)NC7=O)cn6)CC5)CC4)c(F)c3)n2)c1F (racemic) [Compound 57]", "BRAF G466V (Homo sapiens, UniProt P15056, G466V)", "30 to 70%"],
  ["CCCS(=O)(=O)Nc1cccc(-c2nc(-c3ccc(N4CCN(CC5CCN(c6ccc([C@@H]7CCC(=O)NC7=O)cc6)CC5)CC4)cc3)sc2-c2ccnc(N)n2)c1F [Compound 186]", "BRAF G466V (Homo sapiens, UniProt P15056, G466V)", "30 to 70%"],
  ["CCCS(=O)(=O)Nc1cccc(-c2nc(C3CCN(C(=O)C4CCN(CC5CCN(c6ccc(C7CCC(=O)NC7=O)cn6)CC5)CC4)CC3)sc2-c2ccnc(NC)n2)c1F (racemic) [Compound 217]", "BRAF G466V (Homo sapiens, UniProt P15056, G466V)", "30 to 70%"]
]}

q: // output Dmax; input CCCS(=O)(=O)Nc1cccc(-c2nc(C(C)(C)C)sc2-c2ccnc(Nc3cnn(CC4CCN(C(=O)[C@H]5CC[C@H](Oc6ccc(C7CCC(=O)NC7=O)cn6)CC5)CC4)c3)n2)c1F (mixture of isomers) [Compound 117] ; system BRAF G466V (Homo sapiens, UniProt P15056, G466V)
a: < 30%

q: // output Dmax; input CCCS(=O)(=O)Nc1cccc(-c2nc(C(C)(C)C)sc2-c2ccnc(Nc3ccc(N4CCN(C(=O)[C@@H]5CCN(c6ccc([C@H]7CCC(=O)NC7=O)cn6)C5)CC4)c(F)c3)n2)c1F (racemic) [Compound 49] ; system BRAF G466V (Homo sapiens, UniProt P15056, G466V)
a: 30 to 70%

q: // output Dmax; input CCCS(=O)(=O)Nc1cccc(-c2nc(C3CCN(CC4CCN(C[C@H]5CC[C@H](Oc6ccc(C7CCC(=O)NC7=O)cc6)CC5)CC4)CC3)sc2-c2ccnc(N)n2)c1F (mixture of isomers) [Compound 225] ; system BRAF G466V (Homo sapiens, UniProt P15056, G466V)
a: 30 to 70%

q: // output Dmax; input CCCS(=O)(=O)Nc1cccc(-c2nc(C(C)(C)C)sc2-c2ccnc(Nc3ccc(C4CCN(C(=O)C5CCN(c6cc(C7CCC(=O)NC7=O)ccn6)CC5)CC4)cc3)n2)c1F (racemic) [Compound 163] ; system BRAF G466V (Homo sapiens, UniProt P15056, G466V)
a: < 30%

q: // output Dmax; input CCCS(=O)(=O)Nc1cccc(-c2nc(C(C)(C)C)sc2-c2ccnc(NC3CC4(CCN(CC5CCN(c6ccc7c(=O)n(C8CCC(=O)NC8=O)ccc7c6)CC5)CC4)C3)n2)c1F (racemic) [Compound 129] ; system BRAF G466V (Homo sapiens, UniProt P15056, G466V)
a: < 30%

q: // output Dmax; input CCCS(=O)(=O)Nc1cccc(-c2nc(C(C)(C)C)sc2-c2ccnc(Nc3cnn(C4CCN(C(=O)[C@H]5CC[C@H](Oc6ccc(C7CCC(=O)NC7=O)cn6)CC5)CC4)c3)n2)c1F (mixture of isomers) [Compound 109] ; system BRAF G466V (Homo sapiens, UniProt P15056, G466V)
a: < 30%

q: // output Dmax; input CCCS(=O)(=O)Nc1cccc(-c2nc(C(C)(C)C)sc2-c2ccnc(Nc3ccc(N4CCN(CC5CCN(c6ccc(C7CCC(=O)NC7=O)cn6)CC5)CC4)cc3)n2)c1F (racemic) [Compound 47] ; system BRAF G466V (Homo sapiens, UniProt P15056, G466V)
a: > 70%
